# reported growth; entries follow
# System: MDA-MB-468 breast
# EXPERIMENTAL_DETAILS: NCI-60 one-dose screen, 48 h (100 = growth as untreated, 0 = no growth, -100 = all killed)
# PARTICULARS: 10 µM unless noted
This is part of a sample that, as a whole, favours compounds with a hit. Of some 83,000 tested, about 20% had one in any assay.
Provide the reading as a plain figure in %.

Examples with answers:
Cc1nn(-c2ccc(Cl)cc2)c(=O)n1CCOc1ccccc1Cl: 105
COc1cc(-c2cc(/C=C3\CCCCC3=O)[nH]n2)cc(OC)c1OC: 85.2
Nc1c(C(=O)Nc2ccccc2C(F)(F)F)sc2nc3c(cc12)CCC3: 104

Ask | Given O=C(Nc1ccc(-n2cc(-c3ccncc3)c(-c3ccc(O)c(Cl)c3)n2)cc1)c1cc(Cl)cc(Cl)c1 , state its recorded growth.
Reply | 50.6

Ask | Then this compound: COc1ccc(-c2nc3sc(C4CC4)nn3c2/C=C2/C(=O)Nc3ccc(OC)cc32)cc1
Reply | 23.3
